Values compiled from patent US20050107611A1.

The following are reported pKi results, target or system A2A adenosine receptor (Rattus norvegicus, UniProt P30543).
Hey, just a heads up that pKi is the negative log base 10 of the concentration in molar.

As a guide, the following entries are already answered.
[[record]]
molecule = "Clc1cc(-c2nc3ccccc3n3c(-c4ccsc4)nnc23)n[nH]1 [Y = C-(3-Thienyl), R5 = H, R6 = Cl]"
system = "A2A adenosine receptor (Rattus norvegicus, UniProt P30543)"
quantity = "pKi"
observedmeasurement = 5.39

[[record]]
molecule = "Cn1nc(-c2nc3ccccc3n3c(Cc4cccs4)nnc23)cc1Cl [Y = C—CH2-(2-Thienyl), R5 = CH3, R6 = Cl]"
system = "A2A adenosine receptor (Rattus norvegicus, UniProt P30543)"
quantity = "pKi"
observedmeasurement = 5.06

[[record]]
molecule = "COc1ccc2c(c1)nc(-c1cc(Cl)n[nH]1)c1nnc(Cc3cccs3)n12"
system = "A2A adenosine receptor (Rattus norvegicus, UniProt P30543)"
quantity = "pKi"
observedmeasurement = 5.30


# next molecule below
Give the measured pKi of Clc1cc(-c2nc3ccccc3n3c(-c4ccoc4)nnc23)n[nH]1 [Y = C-(3-Furyl), R5 = H, R6 = Cl] .
5.90

====

molecular target: human A3 adenosine receptor (Homo sapiens, UniProt P0DMS8); experiment: Receptor binding assay with [3H]PSB-11 on recombinant A3-adenosine receptors expressed in CHO cells; conditions: Table 2; [3H]PSB-11; read-out: A3 K1
Sequence (P0DMS8 whole entry): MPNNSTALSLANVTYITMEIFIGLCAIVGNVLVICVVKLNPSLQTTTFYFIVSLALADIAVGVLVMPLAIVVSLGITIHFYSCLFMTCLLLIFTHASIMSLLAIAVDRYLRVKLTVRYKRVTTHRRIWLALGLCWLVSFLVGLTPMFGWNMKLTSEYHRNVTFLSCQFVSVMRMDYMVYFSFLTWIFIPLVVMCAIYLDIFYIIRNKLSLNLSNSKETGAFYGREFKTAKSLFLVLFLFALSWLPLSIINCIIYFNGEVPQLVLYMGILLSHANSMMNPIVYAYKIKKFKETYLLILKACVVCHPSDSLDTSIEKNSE
quantity: Ki (nM)
Numbers only here, please. The scale is nM.

[[record]]
compoundstructure = "COc1ccc2c(c1)nc(-c1cc(Cl)[nH]n1)c1nncn12"
system = "human A3 adenosine receptor (Homo sapiens, UniProt P0DMS8)"
quantity = "Ki"
observedmeasurement = 372

[[record]]
compoundstructure = "Cn1nc(-c2nc3ccccc3n3c(Cc4cccs4)nnc23)cc1Cl"
system = "human A3 adenosine receptor (Homo sapiens, UniProt P0DMS8)"
quantity = "Ki"
observedmeasurement = 86

[[record]]
compoundstructure = "COc1ccc2c(c1)nc(-c1cc(Cl)n[nH]1)c1nnc(Cc3cccs3)n12"
system = "human A3 adenosine receptor (Homo sapiens, UniProt P0DMS8)"
quantity = "Ki"
observedmeasurement = 1.9


# next compound below
Which measured Ki belongs to "Clc1cc(-c2nc3ccccc3n3cnnc23)[nH]n1" , tested on human A3 adenosine receptor (Homo sapiens, UniProt P0DMS8)?
142

====

Biological target: UniProtKB P25099
Sequence (P25099 1-326): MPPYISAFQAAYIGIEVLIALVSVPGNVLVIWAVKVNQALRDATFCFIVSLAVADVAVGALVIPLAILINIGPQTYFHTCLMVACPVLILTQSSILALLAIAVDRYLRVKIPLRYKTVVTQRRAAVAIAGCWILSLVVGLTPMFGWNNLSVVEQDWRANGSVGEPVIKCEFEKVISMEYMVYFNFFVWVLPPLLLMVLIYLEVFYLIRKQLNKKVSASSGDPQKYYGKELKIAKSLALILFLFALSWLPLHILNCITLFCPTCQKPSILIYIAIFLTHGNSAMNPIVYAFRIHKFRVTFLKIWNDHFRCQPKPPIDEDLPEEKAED
Assay: Radioligand binding with [3H]CCPA on A1-adenosine receptors, rat brain cortex membranes
Design: tissue Pel Freez Company (Rogers, Ark., USA); host or cells: rat brain cerebral cortex membranes
Details: Table 2; [3H]CCPA; read-out: A1 K1
Recorded measurements of pKi, one per entry
Hey, just a heads up that pKi is the negative log base 10 of the concentration in molar.

As a guide, the following entries are already answered.
[[record]]
molecule = "Cn1nc(-c2nc3ccccc3n3c(Cc4cccs4)nnc23)cc1Cl [Y = C—CH2-(2-Thienyl), R5 = CH3, R6 = Cl]"
system = "UniProtKB P25099"
observedmeasurement = 6.68

[[record]]
molecule = "CC(Oc1ccccc1)c1nnc2c(-c3cc(Cl)[nH]n3)nc3ccccc3n12 (stereo not drawn) [Y = C—CH—(CH3)—O-Ph, R5 = H, R6 = Cl]"
system = "UniProtKB P25099"
observedmeasurement = 7.00

[[record]]
molecule = "Clc1cc(-c2nc3ccccc3n3c(COCc4ccccc4)nnc23)n[nH]1 [Y = C—CH2—O—CH2-Ph, R5 = H, R6 = Cl]"
system = "UniProtKB P25099"
observedmeasurement = 6.21

[[record]]
molecule = "Clc1cc(-c2nc3ccccc3n3c(-c4ccoc4)nnc23)n[nH]1 [Y = C-(3-Furyl), R5 = H, R6 = Cl]"
system = "UniProtKB P25099"
observedmeasurement = 6.49


Give the measured pKi of Clc1cc(-c2nc3ccccc3n3c(-c4ccsc4)nnc23)n[nH]1 [Y = C-(3-Thienyl), R5 = H, R6 = Cl] .
6.48

Give the measured pKi of Clc1cc(-c2nc3ccccc3n3nnnc23)n[nH]1 [Y = N, R5 = H, R6 = Cl] .
6.17

Give the measured pKi of "COc1ccc2c(c1)nc(-c1cc(Cl)n[nH]1)c1nnc(Cc3cccs3)n12" .
6.05

====

Target: human A2B-receptor (Homo sapiens)
Construct: purchased Receptor Biology USA via Perkin Elmer Life Sciences, Cologne, Germany; host or cells: HEK cells (membranes)
Sequence (P29275 1-332): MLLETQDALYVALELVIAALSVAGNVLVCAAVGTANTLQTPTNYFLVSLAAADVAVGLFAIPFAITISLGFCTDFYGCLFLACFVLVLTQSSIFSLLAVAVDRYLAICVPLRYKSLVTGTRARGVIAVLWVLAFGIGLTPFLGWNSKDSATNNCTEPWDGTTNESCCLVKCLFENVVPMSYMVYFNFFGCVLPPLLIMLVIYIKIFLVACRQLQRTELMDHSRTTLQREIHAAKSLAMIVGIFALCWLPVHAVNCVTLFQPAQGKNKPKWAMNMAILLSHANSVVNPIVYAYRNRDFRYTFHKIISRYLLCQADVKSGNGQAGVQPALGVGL
Test: Receptor binding assay with [3H]ZM241385 on recombinant A2B-adenosine receptors in HEK cells
Conditions: 1 μmol
quantity: A2B % inhib. @ 1 μmol

[[record]]
compound = "Clc1cc(-c2nc3ccccc3n3cnnc23)[nH]n1 [Y = C—H, R5 = H, R6 = Cl]"
system = "human A2B-receptor (Homo sapiens)"
observedmeasurement = "(0%)"

[[record]]
compound = "Cn1nc(-c2nc3ccccc3n3c(Cc4cccs4)nnc23)cc1Cl [Y = C—CH2-(2-Thienyl), R5 = CH3, R6 = Cl]"
system = "human A2B-receptor (Homo sapiens)"
observedmeasurement = "(22%)"

[[record]]
compound = "COc1ccc2c(c1)nc(-c1cc(Cl)n[nH]1)c1nnc(Cc3cccs3)n12"
system = "human A2B-receptor (Homo sapiens)"
observedmeasurement = "(0%)"

[[record]]
compound = "COc1ccc2c(c1)nc(-c1cc(Cl)[nH]n1)c1nncn12 [Y = C—H, R3 = OCH3, R5 = H, R6 = Cl]"
system = "human A2B-receptor (Homo sapiens)"
observedmeasurement = "(8%)"

[[record]]
compound = "Clc1cc(-c2nc3ccccc3n3c(-c4ccoc4)nnc23)n[nH]1 [Y = C-(3-Furyl), R5 = H, R6 = Cl]"
system = "human A2B-receptor (Homo sapiens)"
observedmeasurement = "(25%)"


Give the measured A2B % inhib. @ 1 μmol of Clc1cc(-c2nc3ccccc3n3nnnc23)n[nH]1 [Y = N, R5 = H, R6 = Cl] .
(13%)
